# Test system: SF-295 CNS
# experiment-description: NCI-60 one-dose screen, 48 h (100 = growth as untreated, 0 = no growth, -100 = all killed)
# condition-notes: 10 µM unless noted
Compounds without any hit were thinned out: in the full panel of roughly 83,000, 20% have a hit.
Entries whose growth is below 60% take True; entries at or above 60% take False.

{"compound": "CCCCCCCC/C=C/CCCCCCCC1=NC(C)(C)CN1CC(C)O (stereo unspecified)", "classification": "True"}
{"compound": "CC12CCC3C(CCC4CC(=O)/C(=C\\O)CC43C)C1CCC(=O)O2 (stereo unspecified)", "classification": "False"}
{"compound": "CCOC(=O)c1cc(-c2cccnc2)nc2c(Cl)cc(Cl)cc12", "classification": "False"}
{"compound": "CCN1C(=O)c2ccc3c4c(ccc(c24)C1=O)C(=O)N(CCCNCc1ccccc1OC)C3=O", "classification": "True"}
{"compound": "Nc1c2ccccc2nc2ccccc12 (tested in a mixture with another compound)", "classification": "True"}

Determine if Cc1c(C(N)=O)sc2c1c(=O)n(Cc1ccccc1)c1nnc(SCC(=O)Nc3ccc(Cl)cc3)n21 shows growth strictly lower than 60%.
True

Determine if COc1cc(C2C=C(c3ccc(C)cc3)Nc3nc(SC)[nH]c(=O)c32)ccc1Oc1ccnc2cc(Cl)ccc12 (stereo unspecified) shows growth strictly lower than 60%.
False

Determine if O=C(CCc1nnc2sc(Cc3ccccc3Cl)nn12)c1nc2ccccc2[nH]1 shows growth strictly lower than 60%.
False

Determine if Cc1[nH]n(C(N)=S)c(=O)c1N=Nc1ccc(F)c(Cl)c1 shows growth strictly lower than 60%.
False

Determine if O[C@@H]1Cc2ccc3ccccc3c2N[C@H](c2ccoc2)C1 shows growth strictly lower than 60%.
False

---

# System: SR leukemia
# experiment-description: NCI-60 one-dose screen, 48 h
# condition-notes: 10 µM unless noted
About 83,000 compounds went through this panel and 20% of them were active in at least one assay; those are over-represented in the sample as a whole. Calls of active or inactive are those of the source. How the source made its calls: active means growth percent below 10; inactive means the rest.
Can you answer with just one of these options? label 1 = active, label 0 = inactive

Previously resolved entries follow.
{"compound": "CCCCCCC(C)(O)c1ccccc1 (centres undefined)", "classification": "label 0"}
{"compound": "CC[N+](CC)(CCOCCOCC[N+](CC)(CC)Cc1ccc([N+](=O)[O-])cc1)Cc1ccc([N+](=O)[O-])cc1", "classification": "label 0"}
{"compound": "COc1cc(/C=C2\\COc3ccc(O)cc3C2=O)cc(OC)c1", "classification": "label 1"}
{"compound": "N#CCNc1ccccc1N", "classification": "label 0"}
{"compound": "O=c1ccn(C2CCCO2)c(=O)[nH]1 (centres undefined)", "classification": "label 0"}

Which outcome did this test record for the compound C=C(C)[C@@H]1C/C=C(/C=O)CC[C@@H]2O[C@@]2(C)CC/C=C(\C)CC1 ?
label 0

Which outcome did this test record for the compound Cc1cc(NC(=O)c2ccc(N)cc2)ccc1N=Nc1ccc2c(O)c(N=Nc3ccc(Cl)c(S(=O)(=O)O)c3)c(S(=O)(=O)O)cc2c1 ?
label 0

Which outcome did this test record for the compound COc1cc2c(-c3nc4cc(Cl)c(F)cc4s3)cc(=O)oc2c(C)c1OC ?
label 1

Which outcome did this test record for the compound NNC(=O)NO ?
label 0

Which outcome did this test record for the compound C[C@]12CC[C@@H]3c4ccc(O)cc4CC[C@H]3[C@@H]1CC[C@@H]2NS(=O)(=O)c1cccc(Br)c1 ?
label 0

Which outcome did this test record for the compound CCC(C)CC(C)C(=O)c1c(O)ccn(OC)c1=O (centres undefined) ?
label 0

Which outcome did this test record for the compound Cc1nc2cc(NC(=O)CN3CCN(CCN4C(=O)c5cccc6cccc(c56)C4=O)CC3)ccc2s1 ?
label 0

Which outcome did this test record for the compound CCCCCCOc1ccc(/C=N/NC(N)=S)cc1 ?
label 0

Which outcome did this test record for the compound COc1ccc2nccc(/C=C/c3ccnc4ccc(OC)cc34)c2c1 ?
label 0

---

# Test system: SF-268 CNS
# experiment-description: NCI-60 one-dose screen, 48 h (100 = growth as untreated, 0 = no growth, -100 = all killed)
# condition-notes: 10 µM unless noted
About 83,000 compounds went through this panel and 20% of them were active in at least one assay; those are over-represented in the sample as a whole. Activity calls are given as the source filed them. Rule for the calls: active = growth percent below 10; inactive = the rest.
metric: growth

{"molecule": "COc1ccc(C2CC(c3ccc(OC)c(OC)c3)=NN2C(=O)c2cc(OC)c(OC)c(OC)c2)cc1 (stereo not drawn)", "assayed-system": "SF-268 CNS", "growth": "54.7% (inactive)"}
{"molecule": "COc1ccc(/C=C2\\NC(=S)NC2=O)cc1", "assayed-system": "SF-268 CNS", "growth": "106% (inactive)"}
{"molecule": "O=C(/C=C/c1cccnc1)/C=C/c1cccnc1", "assayed-system": "SF-268 CNS", "growth": "-64% (active)"}
{"molecule": "COc1cc(/C=C2\\CCC/C(=C\\c3ccc(OCC4CO4)c(OC)c3)C2=O)ccc1OCC1CO1 (stereo not drawn)", "assayed-system": "SF-268 CNS", "growth": "1.73% (active)"}
{"molecule": "CCOC(=O)C1=C(C)N2C(=NC3=C(CCC/C3=C\\c3ccc(Cl)cc3)C2c2ccc(Cl)cc2)S1 (stereo not drawn)", "assayed-system": "SF-268 CNS", "growth": "34.7% (inactive)"}
{"molecule": "[O-]/[N+](=C\\C=C\\c1ccccc1)c1ccccc1", "assayed-system": "SF-268 CNS", "growth": "101% (inactive)"}

Any idea what growth was measured for O=C(C=C=Nc1ccccc1)C(=O)N=C=Cc1ccccc1 ?
69.1% (inactive)

Any idea what growth was measured for CN(C)c1cccc2c(S(=O)(=O)N[C@H]3CC[C@H]4[C@@H]5CCc6cc(O)ccc6[C@H]5CC[C@]34C)cccc12 ?
40.6% (inactive)

Any idea what growth was measured for ClC1=C(Cl)C(Cl)=C(Cl)C1=Cc1ccc(Cl)cc1 ?
-69.3% (active)

Any idea what growth was measured for COc1ccc(/C(=C2\O[C@@H]([C@H](O)CO)[C@H]3OC(C)(C)O[C@@H]23)c2cc(OC)c(OC)c(OC)c2)cc1O ?
71.1% (inactive)

Any idea what growth was measured for Cc1nn(-c2ccc(Cl)cc2)c2nc3c(nc12)c(=O)oc1ccccc13 ?
104% (inactive)

Any idea what growth was measured for CCC(O)C(C)(C)C (stereo not drawn) ?
113% (inactive)

Any idea what growth was measured for Cn1cnc([N+](=O)[O-])c1S(=O)(=O)Oc1ccc(Cl)cc1 ?
93% (inactive)

Any idea what growth was measured for O=C1NCN(c2ccccc2)C12CCN(CCCC(c1ccc(F)cc1)c1ccc(F)cc1)CC2 ?
71.4% (inactive)

Any idea what growth was measured for COc1ccc(/C=C(\C#N)c2ccccc2)cc1 ?
95.2% (inactive)

Any idea what growth was measured for CCN(CC)CCOc1ccc(C2=C(c3ccccc3)CCc3cc(OC)ccc32)cc1 ?
33.1% (inactive)

Any idea what growth was measured for c1ccc(-n2nnnc2-c2cccc3ccccc23)cc1 ?
43.4% (inactive)

Any idea what growth was measured for COc1ccc2[nH]c(-c3ccccc3)cc2c1 ?
110% (inactive)

Any idea what growth was measured for COc1ccc(-c2nn(-c3ccccc3)cc2/C=C2\SC(=S)N(CCc3ccc(O)cc3)C2=O)cc1 ?
81.4% (inactive)

Any idea what growth was measured for CC(CCC(=O)O)(NC(=O)c1ccc([N+](=O)[O-])cc1)C(=O)O (stereo not drawn) ?
104% (inactive)

Any idea what growth was measured for CC(C)c1ccc(C(=O)Nc2sc3c(CN(C)C)c(O)ccc3c2C(N)=O)cc1 ?
69.3% (inactive)

Any idea what growth was measured for CSc1ccc2c(c1)N(CCC1CCCCN1C)c1ccccc1S2 (stereo not drawn) ?
54.5% (inactive)

Any idea what growth was measured for O=C(C(=O)N1CCOCC1)c1ccc(OC2OC(CO)C(O)C(O)C2O)cc1 (stereo not drawn) ?
115% (inactive)

---

# Tested on: CCRF-CEM leukemia
# experiment-description: NCI-60 one-dose screen, 48 h (100 = growth as untreated, 0 = no growth, -100 = all killed)
# condition-notes: 10 µM unless noted
About 83,000 compounds went through this panel and 20% of them were active in at least one assay; those are over-represented in the sample as a whole.
Collected growth values appear next to each entry.
Number in %, nothing else.

// below: answered compounds
{"structure-notation": "Clc1ccc([C@@H]2C[C@@H]3Cc4cc(Br)c5ccccc5c4N2O3)c(Cl)c1", "growth (%)": 66.5}
{"structure-notation": "O=C(c1ccccc1)c1ccco1", "growth (%)": 93.3}
{"structure-notation": "CC[C@@H]1OC(=O)[C@H](C)[C@@H](O[C@H]2C[C@@](C)(OC)[C@@H](O)[C@H](C)O2)[C@H](C)[C@@H](O[C@@H]2O[C@H](C)C[C@H](N(C)C)[C@H]2O)[C@](C)(O)C[C@@H](C)[C@@H]2N[C@@H](COCCOC)O[C@H]([C@H]2C)[C@]1(C)O", "growth (%)": 82.4}

Now for a further compound.
// lookup growth | system=CCRF-CEM leukemia | key= Cc1nc2c(O)cccc2cc1CO
107
